Target: T1, recombinant extracellular domain (ECD) of human TF, amino acid 1-219 of the mature chain, C-terminal His6-tag (human, UniProt P13726 33-251)
T1 construct: expressed in a mammalian system; used for ELISA and Biacore; biotinylated by NHS-ester for the Fab ELISA; also called His6-TF-ECD1-219; HumanTF1-219
Assay: Biacore
attribute-measured: pKd
Answer as the number alone; pKd is minus log10 of concentration in mol/L.

Query block: Which value of pKd has been reported for M1588 (antibody, V domains shown, complete MAb; FR4 is its own entry; also called H179/L3) VH: EVQLVQSGAEVKKPGESLRISCKGSGYTFGPFWIEWVRQMPGKGLEWMGDILPGSGYTNYSPSFQGHVTISADKSISTAYLQWSSLKASDTAMYYCARSGYYGNSGFAYWGQGTLVTVSS VL: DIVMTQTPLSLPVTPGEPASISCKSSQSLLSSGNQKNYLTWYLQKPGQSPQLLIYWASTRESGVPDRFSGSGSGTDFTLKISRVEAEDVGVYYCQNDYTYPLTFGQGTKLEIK in the records?
Result block: 9.46

Query block: Please give the measured pKd for this binder: M1641 (antibody, V domains shown, complete MAb; FR4 is its own entry; also called H22/L335) VH: EVQLVQSGAEVKKPGESLRISCKGSGYTFITYWIEWVRQMPGKGLEWMGDILPGSGSTNYSPSFQGHVTISADKSISTAYLQWSSLKASDTAMYYCARSGYYGNSGFAYWGQGTLVTVSS VL: DIVMTQTPLSLPVTPGEPASISCKSSQSLLFSANQRNYLTWYLQKPGQSPQLLIYWASTRDSGVPDRFSGSGSGTDFTLKISRVEAEDVGVYYCQNDDTYPLTFGQGTKLEIK
Result block: 9.92

Query block: Name the recorded pKd for M58 (antibody, V domains shown, complete MAb; FR4 is its own entry; also called H22/L2) VH: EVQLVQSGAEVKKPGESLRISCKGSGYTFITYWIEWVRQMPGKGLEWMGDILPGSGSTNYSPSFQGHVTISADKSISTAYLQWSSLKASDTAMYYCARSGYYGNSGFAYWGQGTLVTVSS VL: DIVMTQSPDSLAVSLGERATINCKSSQSLLSSGNQKNYLTWYQQKPGQPPKLLIYWASTRESGVPDRFSGSGSGTDFTLTISSLQAEDVAVYYCQNDYTYPLTFGQGTKLEIK .
Result block: 9.72
